B1: ZNF193 (parent)
chain: QCIECGKSFNRHCNLIRHQKIHTV

- Variants of: B1
- assay: protein stability index of a GFP-peptide fusion (GPS, HEK-293T) (PSI 1-6); higher = more stable;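 also: lentivirally expressed fusions sorted by FACS into six bins by GFP to DsRed ratio, PSI derived from sequencing read proportions per bin multiplied by bin number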
- setupConditions: c terminus: a fixed tail appended
Quick reference for protein stability index among some variants
endpointLabel: protein stability index

>>> print(df.to_string())
    mutation            endpointlabel  recordedresult
 0      N14F  protein stability index            2.32
 1      C13T  protein stability index            3.29
 2       Q1D  protein stability index             3.5
 3      I16R  protein stability index            3.51
 4       Q1P  protein stability index            2.62
 5      N14E  protein stability index            3.94
 6      I21E  protein stability index             4.1
 7      N10T  protein stability index            4.08
 8      N14A  protein stability index             3.9
 9       S8Q  protein stability index            3.02
10       G6M  protein stability index            2.11
11      R17Q  protein stability index            3.91
12      K20I  protein stability index             2.2
13       G6D  protein stability index            2.62
14       S8P  protein stability index            3.13
15      N10M  protein stability index            3.14
16       G6S  protein stability index            2.54
17       S8Y  protein stability index            3.43
18       K7D  protein stability index            2.57
19      L15G  protein stability index            3.04
20      Q19C  protein stability index            3.78
21      N14C  protein stability index            3.43
22      N10K  protein stability index            4.64
23       I3P  protein stability index            4.11
24      R17V  protein stability index            2.99
25      L15Q  protein stability index             2.9
26      V24Q  protein stability index            3.87
27       Q1M  protein stability index            3.54
28      I21W  protein stability index            3.55
29      V24E  protein stability index            4.36
30      H22Q  protein stability index             2.7
31      K20D  protein stability index            2.83
32       E4L  protein stability index            2.66

These data points were gathered from the supplement of paper PMC10567573.
